TARGET_UNDER_TEST: human CD33 T302A (human, UniProt P20138 18-364)
Sequence (P20138 18-364 T302A limits assumed): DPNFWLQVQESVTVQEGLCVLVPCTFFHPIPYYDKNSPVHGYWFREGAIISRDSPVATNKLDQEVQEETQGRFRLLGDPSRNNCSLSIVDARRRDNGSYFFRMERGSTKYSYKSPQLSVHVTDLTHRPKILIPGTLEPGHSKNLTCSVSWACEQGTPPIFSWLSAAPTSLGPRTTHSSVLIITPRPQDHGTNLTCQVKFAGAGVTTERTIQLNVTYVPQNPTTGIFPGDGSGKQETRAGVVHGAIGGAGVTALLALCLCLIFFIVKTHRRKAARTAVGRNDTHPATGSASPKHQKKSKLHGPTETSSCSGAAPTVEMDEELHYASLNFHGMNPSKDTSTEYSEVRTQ
TEST: alanine scan, flow cytometry, HEK293-T;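 further: antibody binding to each alanine-substituted CD33 mutant expressed transiently in HEK293-T, read as fluorescence minus background, mean of duplicates, relative to wild-type CD33 set as 100%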
READOUT: Mean % WT Binding
Put down the number, then write its unit next to it.

INPUT: Give recorded Mean % WT Binding. Refmab #3 (antibody, V domains shown, The alanine scan used IgG or Fab) VH: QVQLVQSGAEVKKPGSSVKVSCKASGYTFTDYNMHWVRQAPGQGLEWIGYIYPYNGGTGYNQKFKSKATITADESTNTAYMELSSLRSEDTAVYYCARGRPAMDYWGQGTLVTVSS VL: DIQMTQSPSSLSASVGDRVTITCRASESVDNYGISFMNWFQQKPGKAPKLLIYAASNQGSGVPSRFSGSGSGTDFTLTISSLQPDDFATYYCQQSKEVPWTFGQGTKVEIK
OUTPUT: 101 % WT binding
